Test system: SF-539 CNS
Test: NCI-60 one-dose screen, 48 h (100 = growth as untreated, 0 = no growth, -100 = all killed)
Details: 10 µM unless noted
Compounds without any hit were thinned out: in the full panel of roughly 83,000, 20% have a hit.
value_kind: growth (%)
Numbers only, in %.

# return growth for each item in the list
1. COc1ccc(NC(=O)Nc2ccc(Nc3nc(C)cc(Nc4ccc(C)cc4)n3)cc2)cc1
2. CN(C)C(CNc1oc(-c2cccc3ccccc23)nc1C#N)c1ccco1 (stereo not given)
3. O=C(O)COc1ccc2c(=O)c3sc4c(=O)c5ccccc5c(=O)c4c3c(=O)c2c1
4. Cc1nnc(/N=C2\NC(=O)/C(=C/c3ccsc3)S2)s1
5. CCSc1ccc(C2C(Br)C(=O)N2c2cc(OC)c(OC)c(OC)c2)cc1 (stereo not given)

[-89.5, 102, -45.7, 99.7, -1.17]

* * *

System: MALME-3M melanoma
Assay: NCI-60 one-dose screen, 48 h
Details: 10 µM unless noted
About 83,000 compounds went through this panel and 20% of them were active in at least one assay; those are over-represented in the sample as a whole. The source made the active and inactive calls. The calls were made as follows: active = growth percent below 10; inactive = the rest.
Assign a class; possible classes are active, inactive

Take a look at these entries with their results.
1. COc1ccccc1N1CCN(CCCOc2ccc(C(=O)/C=C3/C(=O)Nc4ccccc43)cc2)CC1	inactive
2. COc1ccc(C2N(c3cc(OC)c(OC)c(OC)c3)C(=O)C2(F)F)cc1F (stereo unspecified)	inactive
3. COc1ccc(C2=NN(c3ccc(S(N)(=O)=O)cc3)C(c3ccc(Cl)cc3)C2)c(O)c1 (stereo unspecified)	inactive

Tell me the assay call for `CCOCc1cc(C(C)(C)C)ccc1O` please.
inactive

# lookup: test call for `O=c1c2ccccc2oc2ccc(OCCCCCN3CCCCCC3)cc12`
inactive

Each compound tested received a call. Report the one for `CC(=O)Oc1c2c(nc3c1c1ccccc1n3Cc1ccccc1)-c1ccccc1C2` .
inactive

Status in this test for `NC(=O)CN1C(=O)c2ccccc2C1=O` ?
inactive

Can you look up the reported call for `CC(=O)c1c(OCC#N)ccc2c(C)cc(=O)oc12` for me?
inactive

Any idea what this test logged for `COc1cc(/C=C/C(=O)/C=C/c2cc3ccc(Cl)cc3n(Cc3ccccc3)c2=O)ccc1O` ?
active

I would be grateful if you could indicate the recorded call for `Oc1c(CCl)cc(Cl)cc1Cc1cc(Cl)cc(Cc2cc(Cl)cc(CCl)c2O)c1O` .
inactive

Which result was noted for this compound in the test: `CCOC(=O)NCCc1nc2c([nH]1)c(=O)n(C)c(=O)n2C`
inactive

* * *

System: SNB-19 CNS
Assay: NCI-60 one-dose screen, 48 h (100 = growth as untreated, 0 = no growth, -100 = all killed)
Settings: 10 µM unless noted
The panel holds about 83,000 compounds, 20% with a hit somewhere; the sample as a whole holds those more often.
The label class 1 is reserved for growth strictly under 90%; class 0 covers values equal to or above it.

1. COc1cc([C@H](C)c2ccc3ccccc3c2)cc(OC)c1OC	class 1
2. c1ccc2nc(N3CCOCC3)c(N3CCCCC3)nc2c1	class 0
3. N#Cc1c(-c2ccc(Cl)cc2)cc(-c2cc3ccccc3o2)nc1SCC(=O)c1ccc(Cl)cc1	class 0

Does this compound meet the criterion growth < 90%? `C=C1C(=O)O[C@H]2[C@H]1CC/C(COC(=O)/C=C/c1cccnc1)=C\CC[C@@]1(C)O[C@@H]21`
class 1

Does the reported growth of `O=C(CCCC(=O)Nc1ccc(-n2nnc3cc(Cl)c(Cl)cc32)cc1)Nc1ccc(-n2nnc3cc(Cl)c(Cl)cc32)cc1` stay below 90%?
class 1

Below 90% on growth? Entry `COC(=O)c1ccc2c(c1)NC(=O)[C@@H]1CCCN21`
class 0

Decide: growth of `Cc1c(O)c(=O)ccn1-c1nc2ccccc2s1` strictly below 90%?
class 0
